System: HIV-1 virus of the patient (protease and inverse transcriptase genes)
Assay: Trugene genotyping, interpretation of resistances from the amplicon of patient plasma
Conditions: Patient 1 plasma sample; mutations D67N, K70R, M184V, T215Y, K219E, K103N, V108I, P225H, L63P

Compound string: CC(C)Nc1cccnc1N1CCN(C(=O)c2cc3cc(NS(C)(=O)=O)ccc3[nH]2)CC1
Target or system: HIV-1 virus of the patient (protease and inverse transcriptase genes)
Trugene Interpretation of resistances: Resistance

Compound string: CC(C)(C)NC(=O)[C@@H]1CN(Cc2cccnc2)CCN1C[C@@H](O)C[C@@H](Cc1ccccc1)C(=O)N[C@H]1c2ccccc2C[C@H]1O
Target or system: HIV-1 virus of the patient (protease and inverse transcriptase genes)
Trugene Interpretation of resistances: No resistance

Compound string: CC(C)OC(=O)OCOP(=O)(CO[C@H](C)Cn1cnc2c(N)ncnc21)OCOC(=O)OC(C)C.O=C(O)/C=C/C(=O)O
Target or system: HIV-1 virus of the patient (protease and inverse transcriptase genes)
Trugene Interpretation of resistances: No resistance

Compound string: Cc1cn([C@H]2C=C[C@@H](CO)O2)c(=O)[nH]c1=O
Target or system: HIV-1 virus of the patient (protease and inverse transcriptase genes)
Trugene Interpretation of resistances: Resistance

Compound string: Nc1nc(NC2CC2)c2ncn([C@H]3C=C[C@@H](CO)C3)c2n1
Target or system: HIV-1 virus of the patient (protease and inverse transcriptase genes)
Trugene Interpretation of resistances: No resistance

Compound string: O=c1[nH]cnc2c1ncn2[C@H]1CC[C@@H](CO)O1
Target or system: HIV-1 virus of the patient (protease and inverse transcriptase genes)
Trugene Interpretation of resistances: Resistance

Compound string: Nc1ccn([C@@H]2CS[C@H](CO)O2)c(=O)n1
Target or system: HIV-1 virus of the patient (protease and inverse transcriptase genes)
Trugene Interpretation of resistances: Resistance

Compound string: Cc1cccc(C)c1OCC(=O)N[C@@H](Cc1ccccc1)[C@@H](O)C[C@H](Cc1ccccc1)NC(=O)[C@H](C(C)C)N1CCCNC1=O
Target or system: HIV-1 virus of the patient (protease and inverse transcriptase genes)
Trugene Interpretation of resistances: No resistance

----------
System: HIV-1 virus of the patient (protease and inverse transcriptase genes)
Test: Trugene genotyping, interpretation of resistances from the amplicon of patient plasma
Details: Patient 1 plasma sample; mutations D67N, K70R, M184V, T215Y, K219E, K103N, V108I, P225H, L63P

Compound string: Cc1c(O)cccc1C(=O)N[C@@H](CSc1ccccc1)[C@H](O)CN1C[C@H]2CCCC[C@H]2C[C@H]1C(=O)NC(C)(C)C
Trugene Interpretation of resistances: No resistance

Compound string: CC(C)CN(C[C@@H](O)[C@H](Cc1ccccc1)NC(=O)O[C@H]1CCOC1)S(=O)(=O)c1ccc(N)cc1
Trugene Interpretation of resistances: No resistance

Compound string: CC(C)c1nc(CN(C)C(=O)N[C@H](C(=O)N[C@@H](Cc2ccccc2)C[C@H](O)[C@H](Cc2ccccc2)NC(=O)OCc2cncs2)C(C)C)cs1
Trugene Interpretation of resistances: No resistance

Compound string: Cc1ccnc2c1NC(=O)c1cccnc1N2C1CC1
Trugene Interpretation of resistances: Resistance

Compound string: Cc1cn([C@H]2C[C@H](N=[N+]=[N-])[C@@H](CO)O2)c(=O)[nH]c1=O
Trugene Interpretation of resistances: Resistance

Compound string: CC(C)(C)NC(=O)[C@@H]1C[C@@H]2CCCC[C@@H]2CN1C[C@@H](O)[C@H](Cc1ccccc1)NC(=O)[C@H](CC(N)=O)NC(=O)c1ccc2ccccc2n1
Trugene Interpretation of resistances: No resistance

Compound string: O=C1Nc2ccc(Cl)cc2[C@@](C#CC2CC2)(C(F)(F)F)O1
Trugene Interpretation of resistances: Resistance
